tested on: HOP-18; assay: NCI tumour cell line growth inhibition, 48 h
The source made the active and inactive calls. Rule as the data show it: active = GI50 up to about 1.1 µM and inactive = higher.
attribute-measured: GI50

-- ask Report GI50, nothing else, for this molecule: O=C(CSc1nnc(Cc2ccccc2)o1)Nc1ccc(Cl)cc1
-- reply > 100 µM (inactive)

-- ask Report GI50, nothing else, for this molecule: COc1cccc(/C=C2\CCC(CCN(C)C)(C3=CCCC3)C2=O)c1 (stereo unspecified)
-- reply 13.7 µM (inactive)

-- ask Report GI50, nothing else, for this molecule: Cc1ccc2c(CC(=O)O)cc(=O)oc2c1
-- reply > 100 µM (inactive)

-- ask Report GI50, nothing else, for this molecule: C[P+](C)(CC(F)(F)F)c1ccccc1
-- reply > 100 µM (inactive)

-- ask Report GI50, nothing else, for this molecule: C=CC/N=C1/N=C(CC(=O)OCC)CS1
-- reply > 100 µM (inactive)

-- ask Report GI50, nothing else, for this molecule: N/N=c1\c2ccccc2c2ccc3c4ccccc4/c(=N\N)c3c12
-- reply > 100 µM (inactive)

----------
system: NCI-H23; assay: NCI tumour cell line growth inhibition, 48 h
Calls of active or inactive are those of the source. Rule as the data show it: active = GI50 up to about 1.1 µM and inactive = higher.
For each of the compounds below, state its GI50.

-- ask Report GI50, nothing else, for this compound: Cc1nc2c(O)nc3ccccc3c2o1
-- reply > 100 µM (inactive)

-- ask Report GI50, nothing else, for this compound: CC(=O)OC(C)(C)[C@H]1O[C@]23O[C@]1(C)C[C@@H](C)[C@@H]2[C@@]1(C)CC[C@@]24C[C@@]25CC[C@H](O[C@@H]2OC[C@@H](O)[C@H](O)[C@H]2O)C(C)(C)[C@@H]5CC[C@H]4[C@]1(C)[C@H]3O
-- reply 4.84 µM (inactive)

-- ask Report GI50, nothing else, for this compound: Cc1ccc(S(=O)(=O)CC2CCCn3c2c(C#N)c2ccccc23)cc1 (centres undefined)
-- reply > 100 µM (inactive)

-- ask Report GI50, nothing else, for this compound: O=C1CCCC1NC(=O)C(F)(F)F (centres undefined)
-- reply > 100 µM (inactive)

----------
test system: MOLT-4; experiment: NCI tumour cell line growth inhibition, 48 h
The source made the active and inactive calls. Cut-off read from the data, not from the text of the source: active = GI50 up to about 1.1 µM and inactive = higher.
attribute-measured: GI50

-- ask Report GI50, nothing else, for this molecule: CC1=C(C(=O)NCc2ccccc2)C(c2ccccc2O)C(C(=O)NCc2ccccc2)=C(C)N1
-- reply 31.3 µM (inactive)

-- ask Report GI50, nothing else, for this molecule: C=C1C(=O)O[C@@H]2[C@H]1C[C@H](I)[C@@]1(C)CC[C@H](O1)[C@](C)(I)CCCC(C)[C@@H]2O (stereo not given in full)
-- reply 1.49 µM (inactive)

-- ask Report GI50, nothing else, for this molecule: CN1CCC(O)C(CNC23CC4CC(CC(C4)C2)C3)C1 (stereo not given)
-- reply > 100 µM (inactive)

-- ask Report GI50, nothing else, for this molecule: Cc1cn(CCCCC2=NCCCN2)c(=O)[nH]c1=O
-- reply > 26.7 µM (inactive)

-- ask Report GI50, nothing else, for this molecule: Nc1nc(Cl)c(N)c(NCC2(CO)CCCC2)n1
-- reply 74.8 µM (inactive)

-- ask Report GI50, nothing else, for this molecule: N#Cc1c(C#N)c(-c2ccco2)n(/N=C/c2ccco2)c1N
-- reply 94.6 µM (inactive)

-- ask Report GI50, nothing else, for this molecule: C/C(O[Si](C(C)C)(C(C)C)C(C)C)=C(\C)C(=O)N(C)c1ccccc1Cl
-- reply > 100 µM (inactive)

-- ask Report GI50, nothing else, for this molecule: CCOC(=O)C(NC(=O)OC(C)(C)C)C(=O)OCC
-- reply > 100 µM (inactive)

-- ask Report GI50, nothing else, for this molecule: Cc1ccc(/C=C/C(=O)c2cc(CN(C)C)c(O)c(CN(C)C)c2)cc1
-- reply 16 µM (inactive)

-- ask Report GI50, nothing else, for this molecule: COc1cc2c(cc1OC)C1=C(C=O)c3ccc(OC)c(OC)c3C(O)N1CC2 (stereo not given)
-- reply 12.5 µM (inactive)
